experimental-protocol: Apparent permeability across apical to basolateral side in human Caco2 cells at 10 uM after 2 hrs by LC-MS/MS analysis
Type: ADME, cell-based
measurement-conditions: Caco-2
measurement-label: Papp A→B at 2 h, 10 µM (×10⁻⁶ cm/s)

1. COc1cc(C#N)ccc1S(=O)(=O)Nc1ccc2c(c1)cc(C)c(=O)n2C :: 11

---

target-desc: Bromodomain-containing protein 1 (Homo sapiens)
Sequence (O95696 whole entry, the tested form may be a part): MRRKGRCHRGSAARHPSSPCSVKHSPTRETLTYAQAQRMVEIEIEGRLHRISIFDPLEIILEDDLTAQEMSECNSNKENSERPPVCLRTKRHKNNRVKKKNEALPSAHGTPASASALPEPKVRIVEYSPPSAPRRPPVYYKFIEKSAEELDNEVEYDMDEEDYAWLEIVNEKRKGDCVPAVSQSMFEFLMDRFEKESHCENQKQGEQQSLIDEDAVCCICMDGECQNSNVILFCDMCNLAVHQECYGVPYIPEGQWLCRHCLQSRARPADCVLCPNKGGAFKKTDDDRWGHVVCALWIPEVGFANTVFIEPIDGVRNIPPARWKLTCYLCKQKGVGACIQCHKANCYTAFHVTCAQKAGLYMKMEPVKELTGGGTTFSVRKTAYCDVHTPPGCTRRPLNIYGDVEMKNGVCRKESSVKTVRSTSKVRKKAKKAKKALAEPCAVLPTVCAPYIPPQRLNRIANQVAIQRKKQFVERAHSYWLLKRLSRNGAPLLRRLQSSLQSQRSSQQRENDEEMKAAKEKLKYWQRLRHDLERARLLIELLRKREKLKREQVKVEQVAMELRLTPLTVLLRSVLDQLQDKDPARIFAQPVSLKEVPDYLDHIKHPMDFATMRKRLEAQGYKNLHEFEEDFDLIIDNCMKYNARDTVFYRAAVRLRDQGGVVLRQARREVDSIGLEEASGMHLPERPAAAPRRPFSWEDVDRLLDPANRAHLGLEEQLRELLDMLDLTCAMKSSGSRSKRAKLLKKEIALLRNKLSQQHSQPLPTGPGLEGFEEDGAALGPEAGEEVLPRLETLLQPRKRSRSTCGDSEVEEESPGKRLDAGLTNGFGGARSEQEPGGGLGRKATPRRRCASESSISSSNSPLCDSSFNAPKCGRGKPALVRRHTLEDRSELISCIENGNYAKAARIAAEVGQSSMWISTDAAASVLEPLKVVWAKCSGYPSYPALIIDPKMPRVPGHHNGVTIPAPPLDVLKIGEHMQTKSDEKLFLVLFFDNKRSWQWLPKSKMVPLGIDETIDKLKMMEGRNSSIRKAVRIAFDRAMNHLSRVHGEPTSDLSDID
experimental-protocol: Inhibition of human BRPF2 (556 to 688 residues) expressed in Escherichia coli BL21 after 1 hr by BROMOscan assay
Define the label as fulfilled when IC50 is strictly less than 3 µM and as not fulfilled in all remaining cases.

1) COc1cc(C#N)ccc1S(=O)(=O)Nc1ccc2c(c1)cc(C)c(=O)n2C :: fulfilled
2) COc1cc(C#N)ccc1S(=O)(=O)Nc1ccc2c(c1)cc(C(C)C)c(=O)n2C :: not fulfilled
3) COc1cc(C#N)ccc1S(=O)(=O)Nc1cc(F)c2c(c1)cc(C)c(=O)n2C :: fulfilled
4) CC(C)c1cc2cc(NS(=O)(=O)c3ccc(C#N)cc3)ccc2n(C)c1=O :: not fulfilled
5) CCc1cc2cc(NS(=O)(=O)c3ccc(C#N)cc3OC)ccc2n(CC)c1=O :: not fulfilled
6) Cn1c(=O)ccc2cc(S(=O)(=O)Nc3ccccc3)ccc21 :: not fulfilled

Where do these numbers come from? They come from ChEMBL document CHEMBL4028852.
